Would you mind telling me the reported solubility kinetic of each entry?
- Protocol Text: Aqueous solubility of compound at pH 6.5 by nephelometry
- Format: physicochemical
# unit: µM | format: bare number

Briefly, solubility kinetic measured for Cc1cnc(NC(=O)CCCOc2ccc(Cl)c(C)c2)s1 : 1.1

Briefly, solubility kinetic measured for Cc1cc(NC2CCN(C(=O)Nc3ncc(Cl)s3)C2)ccc1Cl (stereo not drawn) : 1.6

Briefly, solubility kinetic measured for Cc1ccc(N2CCN(C(=O)Nc3ncc(Cl)s3)CC2=O)cc1Cl : 1.6

Briefly, solubility kinetic measured for Cc1ccc(NC2CN(C(=O)Nc3ncc(Cl)s3)C2)cc1Cl : 1.6

Briefly, solubility kinetic measured for Clc1cnc2[nH]c(N3CCN(c4cnc(Cl)c(Cl)c4)CC3)nc2c1 : 1.6

Briefly, solubility kinetic measured for Clc1cnc2[nH]c(CCCOc3cnc(Cl)c(Cl)c3)nc2c1 : 1.6

###

- Protocol Text: Metabolic stability in human liver microsomes assessed as half life at 1 uM measured upto 60 mins by LC-MS anlaysis
- Assay type: ADME, Microsome
Property Label: log10 half-life at 1 µM (log10 of the value in min)
Field: value | Transform: log10 | Quantity: half-life at 1 µM | Unit: min

Briefly, log10 half-life at 1 µM measured for Cc1cnc2[nH]c(N3CCN(c4ccc(C)c(Cl)c4)CC3)nc2c1 : 1.18

Briefly, log10 half-life at 1 µM measured for N#Cc1cnc(NC(=O)N2CCN(c3ccc(Cl)c(Cl)c3)CC2)s1 : 2.18

Briefly, log10 half-life at 1 µM measured for Cc1cnc(NC(=O)CCCOc2ccc(Cl)c(C)c2)s1 : 1.00

Briefly, log10 half-life at 1 µM measured for Cc1ccc(OCCCc2nc3cc(Cl)cnc3[nH]2)cc1Cl : 0.70

Briefly, log10 half-life at 1 µM measured for O=C(Nc1ncc(Cl)s1)N1CCN(c2cnc(Cl)c(Cl)c2)CC1 : 1.85

###

- System: Cytomegalovirus
- Protocol Text: Antiviral activity against CMV infected in FlpIn-HEK293 cells assessed as click beetle green reporter driven gene expression incubated for 72 hrs by luciferase based cellular assay
- Assay type: functional, organism-based
- Condition Set: HEK293, 72 h
Property Label: EC50 (nM)
# unit: nM | format: bare number

Briefly, EC50 measured for Cc1cc(N2CCN(C(=O)Nc3ncc(Cl)s3)CC2)cnc1C#N : 830

Briefly, EC50 measured for Cc1cnc(NC(=O)N2CCC(Nc3ccc(Cl)c(C)c3)CC2)s1 : 20000

Briefly, EC50 measured for Cc1cnc(NC(=O)N2CCN(c3ccc(C)c(Cl)c3)CC2C)s1 (stereo unspecified) : 5200

Briefly, EC50 measured for Clc1cnc2[nH]c(CCCOc3cnc(Cl)c(Cl)c3)nc2c1 : 2400

Briefly, EC50 measured for Cc1cnc(NC(=O)N2CCC(Oc3ccc(Cl)c(C)c3)CC2)s1 : 40000

Briefly, EC50 measured for Cc1ccc(N2CCN(C(=O)Nc3ncc(Cl)s3)CC2)cc1Cl : 670

Briefly, EC50 measured for Clc1cnc2[nH]c(CCCOc3ccc(Cl)c(Cl)c3)nc2c1 : 1200

Briefly, EC50 measured for Cc1cnc(NC(=O)N2CCC(N(C)c3ccc(Cl)c(C)c3)C2)s1 (stereo unspecified) : 33000

Briefly, EC50 measured for Cc1cc(N2CCN(C(=O)Nc3ncc(Cl)s3)CC2)ncc1C#N : 1000

Briefly, EC50 measured for N#Cc1cnc(NC(=O)N2CCN(c3cnc(Cl)c(Cl)c3)CC2)s1 : 150

###

- System: Human immunodeficiency virus 1
- Protocol Text: Antiviral activity against HIV-1 infected in FlpIn-HEK293 cells assessed as activation of long terminal repeat driven gene expression incubated for 72 hrs by luciferase based cellular assay
- Assay type: functional, organism-based
- Condition Set: Human immunodeficiency virus 1, HEK293, 72 h
Would you mind telling me the reported EC50 of each entry?
# unit: nM | format: bare number

Entry Cc1cc(N2CCN(C(=O)Nc3ncc(Cl)s3)CC2)cnc1C#N , tested on Human immunodeficiency virus 1, has a reported EC50 of 210

Entry Cc1ccc(NC2CN(C(=O)Nc3ncc(Cl)s3)C2)cc1Cl , tested on Human immunodeficiency virus 1, has a reported EC50 of 230

Entry Cc1cnc(NC(=O)N2CCN(c3cc(C(F)(F)F)c(Cl)cn3)CC2)s1 , tested on Human immunodeficiency virus 1, has a reported EC50 of 730

Entry Cc1ccc(N2CCN(C(=O)Nc3ncc(C#N)s3)CC2)cc1Cl , tested on Human immunodeficiency virus 1, has a reported EC50 of 240

Entry Cc1cnc2[nH]c(CCCOc3ccc(Cl)c(Cl)c3)nc2c1 , tested on Human immunodeficiency virus 1, has a reported EC50 of 14000

Entry Cc1cc(N2CCN(C(=O)Nc3ncc(Cl)s3)CC2)ccc1Cl , tested on Human immunodeficiency virus 1, has a reported EC50 of 400

###

Would you mind telling me the reported EC50 of each entry?
- Tested on: Cytomegalovirus
- Protocol Text: Antiviral activity against CMV infected in FlpIn-HEK293 cells assessed as click beetle green reporter driven gene expression incubated for 72 hrs by luciferase based cellular assay
- Type: functional, organism-based
- Condition Set: HEK293, 72 h

Briefly, EC50 measured for Cc1ccc(OCCCc2nc3ncc(Cl)cc3s2)cc1Cl : > 40 µM

Briefly, EC50 measured for O=C(Nc1ncc(Cl)s1)N1CCN(c2ccc(Cl)cc2)CC1 : 1.64 µM

Briefly, EC50 measured for Cc1cnc(NC(=O)N2CCN(c3ccc(C)c(Cl)c3)C(C)C2)s1 (stereo unspecified) : 6.5 µM

Briefly, EC50 measured for Cc1cc(N(C)C2CCN(C(=O)Nc3ncc(Cl)s3)C2)ccc1Cl (stereo unspecified) : 20 µM

Briefly, EC50 measured for Cc1cnc(NC(=O)N2CCN(c3cncnc3)CC2)s1 : > 40 µM

Briefly, EC50 measured for Cc1cnc2[nH]c(CCCOc3cnc(Cl)c(Cl)c3)nc2c1 : 34 µM

###

Would you mind telling me the reported EC50 of each entry?
- Test system: Cytomegalovirus
- Protocol Text: Antiviral activity against CMV infected in FlpIn-HEK293 cells assessed as click beetle green reporter driven gene expression incubated for 72 hrs by luciferase based cellular assay
- Type: functional, organism-based
- Condition Set: HEK293, 72 h
# unit: nM | format: bare number

Briefly, EC50 measured for Cc1cnc(NC(=O)N2CCN(c3cccc(C#N)c3)CC2)s1 : 1800

Briefly, EC50 measured for Cc1ccc(N2CCN(C(=O)Nc3ncc(Cl)s3)CC2C)cc1Cl (stereo unspecified) : 3700

Briefly, EC50 measured for Cc1ccc(OC2CN(C(=O)Nc3ncc(Cl)s3)C2)cc1Cl : 1900

Briefly, EC50 measured for Cc1cnc(NC(=O)N2CCN(c3ccc(Cl)c(C)c3)CC2)s1 : 2300

Briefly, EC50 measured for Cc1cnc2[nH]c(N3CCN(c4ccc(C)c(Cl)c4)CC3)nc2c1 : 2800

Briefly, EC50 measured for Cc1cc(N2CCN(C(=O)Nc3ncc(Cl)s3)CC2)ccc1Cl : 890

Briefly, EC50 measured for Cc1ccc(N(C)C2CN(C(=O)Nc3ncc(Cl)s3)C2)cc1Cl : 2800

Briefly, EC50 measured for O=C(Nc1ncc(Cl)s1)N1CCN(c2ccc(Cl)c(Cl)c2)CC1 : 800

Briefly, EC50 measured for Cc1cc(NC2CCN(C(=O)Nc3ncc(Cl)s3)C2)ccc1Cl (stereo unspecified) : 1800

Briefly, EC50 measured for Cc1cnc(NC(=O)N2CCN(c3ccc(Cl)c(Cl)c3)CC2)s1 : 490

###

- System: Cytomegalovirus
- Protocol Text: Antiviral activity against CMV infected in FlpIn-HEK293 cells assessed as click beetle green reporter driven gene expression incubated for 72 hrs by luciferase based cellular assay
- Assay type: functional, organism-based
- Condition Set: HEK293, 72 h
Property Label: pEC50
// returns pEC50 (minus log10 of molar concentration), number only

Briefly, pEC50 measured for Cc1cnc2[nH]c(CCCOc3ccc(C)c(Cl)c3)nc2c1 : 4.62

Briefly, pEC50 measured for Cc1cnc(NC(=O)N2CC(N(C)c3ccc(C)c(Cl)c3)C2)s1 : 4.80

Briefly, pEC50 measured for O=C(Nc1ncc(Cl)s1)N1CCN(c2cncnc2)CC1 : 4.92

Briefly, pEC50 measured for Cc1cnc(NC(=O)N2CCN(c3cnc(C#N)c(C)c3)CC2)s1 : 4.68

Briefly, pEC50 measured for N#Cc1cnc(NC(=O)N2CCN(c3ccc(Cl)cc3)CC2)s1 : 5.44

###

- Protocol Text: Metabolic stability in mouse liver microsomes assessed as intrinsic clearance at 1 uM measured upto 60 mins by LC-MS anlaysis
- Type: ADME, Microsome
- Condition Set: read-out: CLH
Property Label: microsomal CLint at 1 µM (µL/min/mg)
# unit: µL/min/mg | format: bare number

Briefly, microsomal CLint at 1 µM measured for Cc1ccc(N2CCN(C(=O)Nc3ncc(Cl)s3)CC2)cc1Cl : 53

Briefly, microsomal CLint at 1 µM measured for Cc1ccc(NC2CN(C(=O)Nc3ncc(Cl)s3)C2)cc1Cl : 49

Briefly, microsomal CLint at 1 µM measured for Cc1cc(NC2CCN(C(=O)Nc3ncc(Cl)s3)C2)ccc1Cl (stereo not drawn) : 151

Briefly, microsomal CLint at 1 µM measured for Cc1ccc(N2CCN(C(=O)Nc3ncc(Cl)s3)CC2=O)cc1Cl : 29

Briefly, microsomal CLint at 1 µM measured for Clc1cnc2[nH]c(N3CCN(c4cnc(Cl)c(Cl)c4)CC3)nc2c1 : 132

Briefly, microsomal CLint at 1 µM measured for O=C(Nc1ncc(Cl)s1)N1CCN(c2cnc(Cl)c(Cl)c2)CC1 : 32

Briefly, microsomal CLint at 1 µM measured for Cc1cnc2[nH]c(N3CCN(c4ccc(C)c(Cl)c4)CC3)nc2c1 : 224

Briefly, microsomal CLint at 1 µM measured for N#Cc1cnc(NC(=O)N2CCN(c3ccc(Cl)c(Cl)c3)CC2)s1 : 15

Briefly, microsomal CLint at 1 µM measured for N#Cc1cccc(N2CCN(C(=O)Nc3ncc(Cl)s3)CC2)c1 : 38

Briefly, microsomal CLint at 1 µM measured for N#Cc1cnc(NC(=O)N2CCN(c3cnc(Cl)c(Cl)c3)CC2)s1 : 22

Briefly, microsomal CLint at 1 µM measured for Clc1cnc2[nH]c(CCCOc3cnc(Cl)c(Cl)c3)nc2c1 : 122

Briefly, microsomal CLint at 1 µM measured for Cc1cnc(NC(=O)CCCOc2ccc(Cl)c(C)c2)s1 : 815
